Test system: 301 cancer cell lines from different tumor types (OncoPanel; HD Biosciences)
Assay: 2D cell viability inhibition assay (CellTiter-Glo) in cancer cell line panel
Format: cell-based
Conditions: Homo sapiens, TT, T.T cell line
parameter: pEC50
Reminder that pEC50 means the negative base-10 logarithm of the concentration expressed in mol/L.

IN: So what does the record say about pEC50 for CC(C)c1ccc(N(C)c2ccc3c(c2)OCC[C@H]3CNc2cnccc2C(=O)O)cc1 [Compound 1] ?
OUT: 8.36

---

Test system: 301 cancer cell lines from different tumor types (OncoPanel; HD Biosciences)
Assay: 2D cell viability inhibition assay (CellTiter-Glo) in cancer cell line panel
Type: cell-based
Settings: Homo sapiens, SW-620, SW620 cell line
parameter: IC50 (µM)
// return numeric value only (unit: µM, not printed)

IN: Request: IC50, test system 301 cancer cell lines from different tumor types (OncoPanel; HD Biosciences), entry CC(C)c1ccc(N(C)c2ccc3c(c2)OCC[C@H]3CNc2cnccc2C(=O)O)cc1 [Compound 1]
OUT: 0.0293

---

Tested on: 301 cancer cell lines from different tumor types (OncoPanel; HD Biosciences)
Assay: 2D cell viability inhibition assay (CellTiter-Glo) in cancer cell line panel
Format: cell-based
Conditions: Homo sapiens, Jurkat, JURKAT cell line
parameter: pIC50
Reminder that pIC50 means the negative base-10 logarithm of the concentration expressed in mol/L.

IN: Request: pIC50, test system 301 cancer cell lines from different tumor types (OncoPanel; HD Biosciences), entry CC(C)c1ccc(N(C)c2ccc3c(c2)OCC[C@H]3CNc2cnccc2C(=O)O)cc1
OUT: 8.83

---

Test system: 301 cancer cell lines from different tumor types (OncoPanel; HD Biosciences)
Test: 2D cell viability inhibition assay (CellTiter-Glo) in cancer cell line panel
Assay type: cell-based
Details: Homo sapiens, U-87 MG, U87MG cell line
pEC50: −log10 of the molar value.
parameter: pEC50

IN: So what does the record say about pEC50 for CC(C)c1ccc(N(C)c2ccc3c(c2)OCC[C@H]3CNc2cnccc2C(=O)O)cc1 ?
OUT: ≤ 5.00

---

Test system: 301 cancer cell lines from different tumor types (OncoPanel; HD Biosciences)
Assay: 2D cell viability inhibition assay (CellTiter-Glo) in cancer cell line panel
Assay type: cell-based
Conditions: NAMALWA cell line
parameter: IC50 (nM)
// return numeric value only (unit: nM, not printed)

IN: So what does the record say about IC50 for CC(C)c1ccc(N(C)c2ccc3c(c2)OCC[C@H]3CNc2cnccc2C(=O)O)cc1 ?
OUT: 3.21

---

Test system: 301 cancer cell lines from different tumor types (OncoPanel; HD Biosciences)
Assay: 2D cell viability inhibition assay (CellTiter-Glo) in cancer cell line panel
Type: cell-based
Conditions: Homo sapiens, TE-11, TE11 cell line
parameter: pEC50
Reminder that pEC50 means the negative base-10 logarithm of the concentration expressed in mol/L.

IN: So what does the record say about pEC50 for CC(C)c1ccc(N(C)c2ccc3c(c2)OCC[C@H]3CNc2cnccc2C(=O)O)cc1 [Compound 1] ?
OUT: 8.41

---

Tested on: 301 cancer cell lines from different tumor types (OncoPanel; HD Biosciences)
Test: 2D cell viability inhibition assay (CellTiter-Glo) in cancer cell line panel
Format: cell-based
Conditions: Homo sapiens, Detroit 562, DETROIT562 cell line
parameter: pEC50
Reminder that pEC50 means the negative base-10 logarithm of the concentration expressed in mol/L.

IN: So what does the record say about pEC50 for CC(C)c1ccc(N(C)c2ccc3c(c2)OCC[C@H]3CNc2cnccc2C(=O)O)cc1 ?
OUT: 7.98

---

Test system: 301 cancer cell lines from different tumor types (OncoPanel; HD Biosciences)
Assay: 2D cell viability inhibition assay (CellTiter-Glo) in cancer cell line panel
Type: cell-based
Settings: KNS81 cell line
pIC50: −log10 of the molar value.
parameter: pIC50

IN: So what does the record say about pIC50 for CC(C)c1ccc(N(C)c2ccc3c(c2)OCC[C@H]3CNc2cnccc2C(=O)O)cc1 ?
OUT: < 5.00

---

Test system: 301 cancer cell lines from different tumor types (OncoPanel; HD Biosciences)
Test: 2D cell viability inhibition assay (CellTiter-Glo) in cancer cell line panel
Type: cell-based
Details: HLF, HLF cell line
parameter: pIC50
Reminder that pIC50 means the negative base-10 logarithm of the concentration expressed in mol/L.

IN: So what does the record say about pIC50 for CC(C)c1ccc(N(C)c2ccc3c(c2)OCC[C@H]3CNc2cnccc2C(=O)O)cc1 ?
OUT: 7.74

---

Test system: 301 cancer cell lines from different tumor types (OncoPanel; HD Biosciences)
Test: 2D cell viability inhibition assay (CellTiter-Glo) in cancer cell line panel
Format: cell-based
Details: Homo sapiens, NCI-H1734, NCIH1734 cell line
pIC50: −log10 of the molar value.
parameter: pIC50

IN: So what does the record say about pIC50 for CC(C)c1ccc(N(C)c2ccc3c(c2)OCC[C@H]3CNc2cnccc2C(=O)O)cc1 ?
OUT: < 5.00

---

Assay: Sink condition: solubility of API in DI water and SGF
Format: physicochemical
Conditions: simulated gastric fluid, thermodynamic from solid; diluent SGF; read-out: Final Concentration
parameter: solubility

IN: So what does the record say about solubility for CC(C)c1ccc(N(C)c2ccc3c(c2)OCC[C@H]3CNc2cnccc2C(=O)O)cc1 ?
OUT: ≥ 3700 µg/mL

---

System: 301 cancer cell lines from different tumor types (OncoPanel; HD Biosciences)
Assay: 2D cell viability inhibition assay (CellTiter-Glo) in cancer cell line panel
Format: cell-based
Settings: Homo sapiens, K562, K562 cell line
parameter: IC50 (nM)
// return numeric value only (unit: nM, not printed)

IN: So what does the record say about IC50 for CC(C)c1ccc(N(C)c2ccc3c(c2)OCC[C@H]3CNc2cnccc2C(=O)O)cc1 ?
OUT: 4.56

---

Tested on: 301 cancer cell lines from different tumor types (OncoPanel; HD Biosciences)
Experiment: 2D cell viability inhibition assay (CellTiter-Glo) in cancer cell line panel
Assay type: cell-based
Settings: SW1271, 168 h, SW1271; lung, small cell carcinoma; 168 hours
pIC50: −log10 of the molar value.
parameter: pIC50

IN: So what does the record say about pIC50 for CC(C)c1ccc(N(C)c2ccc3c(c2)OCC[C@H]3CNc2cnccc2C(=O)O)cc1 ?
OUT: < 5.00

---

Test system: 301 cancer cell lines from different tumor types (OncoPanel; HD Biosciences)
Assay: 2D cell viability inhibition assay (CellTiter-Glo) in cancer cell line panel
Assay type: cell-based
Conditions: Homo sapiens, TT, T.T cell line
parameter: IC50 (nM)
// return numeric value only (unit: nM, not printed)

IN: So what does the record say about IC50 for CC(C)c1ccc(N(C)c2ccc3c(c2)OCC[C@H]3CNc2cnccc2C(=O)O)cc1 [Compound 1] ?
OUT: 6.75

---

Tested on: 301 cancer cell lines from different tumor types (OncoPanel; HD Biosciences)
Test: 2D cell viability inhibition assay (CellTiter-Glo) in cancer cell line panel
Assay type: cell-based
Conditions: Homo sapiens, RKO, RKO cell line
parameter: pIC50
Reminder that pIC50 means the negative base-10 logarithm of the concentration expressed in mol/L.

IN: So what does the record say about pIC50 for CC(C)c1ccc(N(C)c2ccc3c(c2)OCC[C@H]3CNc2cnccc2C(=O)O)cc1 [Compound 1] ?
OUT: 7.94

---

Test system: 301 cancer cell lines from different tumor types (OncoPanel; HD Biosciences)
Assay: 2D cell viability inhibition assay (CellTiter-Glo) in cancer cell line panel
Format: cell-based
Conditions: Homo sapiens, HCC78, HCC78 cell line
parameter: IC50 (µM)
// return numeric value only (unit: µM, not printed)

IN: So what does the record say about IC50 for CC(C)c1ccc(N(C)c2ccc3c(c2)OCC[C@H]3CNc2cnccc2C(=O)O)cc1 ?
OUT: 0.0239

---

System: 301 cancer cell lines from different tumor types (OncoPanel; HD Biosciences)
Experiment: 2D cell viability inhibition assay (CellTiter-Glo) in cancer cell line panel
Type: cell-based
Details: Homo sapiens, ONS-76, 168 h, ONS76; central nervous system, NS; 168 hours
Procedure: In a larger screening study, compound 1 was evaluated across a broad cancer cell line panel (OncoPanel; HD Biosciences) composed of 301 cancer cell lines from different tumor types. 2D cell viability inhibition assays were performed in multiwell plates seeded with cells from the panel. […] Cultures were incubated for 168 hours after which the number of viable cells in each test well was assessed using the CellTiter-Glo® Luminescent Cell Viability Assay. […]
pIC50: −log10 of the molar value.
parameter: pIC50

IN: Request: pIC50, test system 301 cancer cell lines from different tumor types (OncoPanel; HD Biosciences), entry CC(C)c1ccc(N(C)c2ccc3c(c2)OCC[C@H]3CNc2cnccc2C(=O)O)cc1 [Compound 1]
OUT: < 5.00

---

Test system: 301 cancer cell lines from different tumor types (OncoPanel; HD Biosciences)
Test: 2D cell viability inhibition assay (CellTiter-Glo) in cancer cell line panel
Assay type: cell-based
Conditions: Homo sapiens, MC116, MC116 cell line
Protocol: In a larger screening study, compound 1 was evaluated across a broad cancer cell line panel (OncoPanel; HD Biosciences) composed of 301 cancer cell lines from different tumor types. 2D cell viability inhibition assays were performed in multiwell plates seeded with cells from the panel. […] Cultures were incubated for 168 hours after which the number of viable cells in each test well was assessed using the CellTiter-Glo® Luminescent Cell Viability Assay. […]
parameter: pEC50
Reminder that pEC50 means the negative base-10 logarithm of the concentration expressed in mol/L.

IN: So what does the record say about pEC50 for CC(C)c1ccc(N(C)c2ccc3c(c2)OCC[C@H]3CNc2cnccc2C(=O)O)cc1 ?
OUT: 8.28

Recorded values, source patent US20250134874A1.
